STUDY TARGET: purified recombinant human LDHA protein (Homo sapiens)
EXPERIMENT: Lactate dehydrogenase-A (LDHA) inhibition assay, NADH consumption
Type: biochemical
STUDY CONDITIONS: 200 µg/mL; comparator 6e
Each entry below lists one item and its recorded fold by which (6e) is more potent than the labelled compound (LDHA inhibition efficiency) value.
ENDPOINT NAME: fold by which (6e) is more potent than the labelled compound (LDHA inhibition efficiency) (fold)

MOLECULE: CCc1ccc(/C=N/n2c(C)nc3ccc(Cl)cc3c2=O)s1 [Compound 6f]
UOM: fold
MEASURED RESULT: 1.9
--
MOLECULE: Cc1nc2ccc(Cl)cc2c(=O)n1N [Compound 5b]
UOM: fold
MEASURED RESULT: 3.6
--
MOLECULE: COc1ccc2cc(/C=N/n3c(C)nc4ccc(Cl)cc4c3=O)ccc2c1 [Compound 6c]
UOM: fold
MEASURED RESULT: 3.3
--
MOLECULE: COc1cc2nc(C)n(N=Cc3ccc(OCc4ccccc4)c(OC)c3)c(=O)c2cc1OC [Compound 6d]
UOM: fold
MEASURED RESULT: 1.7

----------
EXPERIMENT: In vitro cytotoxicity assay (LDH release)
Assay type: cell-based, human
STUDY CONDITIONS: human, HCT-116 colon cancer cells; 200 µg/ml; 24 h; read-out: Mean % Cell Viability ± SD CRC-HCT-116 cells

ENTRY SMILES: O=C(O)c1ccc(/C=N/Nc2nc3ccccc3[nH]c2=O)cc1
viability at 24 h, 200 µg/ml / %: 65.5

----------
STUDY TARGET: purified recombinant human LDHA protein (Homo sapiens, UniProt P00338)
EXPERIMENT: Lactate dehydrogenase-A (LDHA) inhibition assay, NADH consumption
Format: biochemical
STUDY CONDITIONS: LDHA; 200 µg/ml; read-out: Mean Inhibition % at 200 µg/ml ± SD

MOLECULE: COc1ccc2cc(/C=N/n3c(C)nc4ccc(Cl)cc4c3=O)ccc2c1 [Compound 6c]
STUDY TARGET: purified recombinant human LDHA protein (Homo sapiens, UniProt P00338)
inhibition at 200 µg/mL / %: 23

MOLECULE: COc1ccc2cc(C=NNc3nc4ccccc4[nH]c3=O)ccc2c1 [Compound 4e]
STUDY TARGET: purified recombinant human LDHA protein (Homo sapiens, UniProt P00338)
inhibition at 200 µg/mL / %: 31.2

MOLECULE: NN=c1[nH]c2ccccc2[nH]c1=O [Compound 2]
STUDY TARGET: purified recombinant human LDHA protein (Homo sapiens, UniProt P00338)
inhibition at 200 µg/mL / %: 47.1

MOLECULE: COc1cc2nc(C)n(N=Cc3ccc(OCc4ccccc4)c(OC)c3)c(=O)c2cc1OC [Compound 6d]
STUDY TARGET: purified recombinant human LDHA protein (Homo sapiens, UniProt P00338)
inhibition at 200 µg/mL / %: 44.4

MOLECULE: COc1cc(C=NNc2nc3ccccc3[nH]c2=O)cc([N+](=O)[O-])c1O [Compound 4c]
STUDY TARGET: purified recombinant human LDHA protein (Homo sapiens, UniProt P00338)
inhibition at 200 µg/mL / %: 64.2

MOLECULE: O=C(O)c1ccc(/C=N/Nc2nc3ccccc3[nH]c2=O)cc1 [Compound 4d]
STUDY TARGET: purified recombinant human LDHA protein (Homo sapiens, UniProt P00338)
inhibition at 200 µg/mL / %: 85

MOLECULE: COc1cc2nc(C)n(N=Cc3cc(OC)c(O)c([N+](=O)[O-])c3)c(=O)c2cc1OC [Compound 6a]
STUDY TARGET: purified recombinant human LDHA protein (Homo sapiens, UniProt P00338)
inhibition at 200 µg/mL / %: 89.7

MOLECULE: COc1cc(C=Nn2c(C)nc3ccc(Cl)cc3c2=O)ccc1OCc1ccccc1 [Compound 6e]
STUDY TARGET: purified recombinant human LDHA protein (Homo sapiens, UniProt P00338)
inhibition at 200 µg/mL / %: 76.8

MOLECULE: COc1cc(C=NNc2nc3ccccc3[nH]c2=O)cc(Cl)c1O [Compound 4a]
STUDY TARGET: purified recombinant human LDHA protein (Homo sapiens, UniProt P00338)
inhibition at 200 µg/mL / %: 28.2

MOLECULE: COc1cc(C=NNc2nc3ccccc3[nH]c2=O)cc(I)c1O [Compound 4b]
STUDY TARGET: purified recombinant human LDHA protein (Homo sapiens, UniProt P00338)
inhibition at 200 µg/mL / %: 35.4

MOLECULE: Cc1nc2ccc(Cl)cc2c(=O)n1N [Compound 5b]
STUDY TARGET: purified recombinant human LDHA protein (Homo sapiens, UniProt P00338)
inhibition at 200 µg/mL / %: 21.2

MOLECULE: CCc1ccc(C=Nn2c(C)nc3ccc(F)cc3c2=O)s1 [Compound 6g]
STUDY TARGET: purified recombinant human LDHA protein (Homo sapiens, UniProt P00338)
inhibition at 200 µg/mL / %: 89.8

MOLECULE: O=c1[nH]c2ccccc2[nH]c1=O [Compound 1]
STUDY TARGET: purified recombinant human LDHA protein (Homo sapiens, UniProt P00338)
inhibition at 200 µg/mL / %: 68.2

MOLECULE: CCc1ccc(/C=N/n2c(C)nc3ccc(Cl)cc3c2=O)s1 [Compound 6f]
STUDY TARGET: purified recombinant human LDHA protein (Homo sapiens, UniProt P00338)
inhibition at 200 µg/mL / %: 40

MOLECULE: COc1cc2nc(C)n(N=Cc3ccc(C(=O)O)cc3)c(=O)c2cc1OC [Compound 6b]
STUDY TARGET: purified recombinant human LDHA protein (Homo sapiens, UniProt P00338)
inhibition at 200 µg/mL / %: 49.2
